System: H9c2 cardiomyocytes, 2-deoxyglucose stress, ATP luminescence, 2 h
procedure details: H9c2 cell survival under 2-deoxyglucose stress – uHTS hits, dose response (AID 588780)
Active and inactive are the calls of the source.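 The calls were made as follows: active = compounds whose fitted half-maximal concentration in the cell-protection dose series is at or below a set limit; inactive = the rest.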
Pick one and only one: 1.0 = active, 0.0 = inactive

// known answers, use as guide
*Q* Record lookup: outcome of this test for Cc1ccc(C)c(C(=O)COC(=O)Cn2[nH]c(=O)c3ccccc3c2=O)c1 ?
*A* 0.0

*Q* For this compound, state the assay outcome: Cc1cc(-n2c(C)cc(C(=O)COc3ccc4ccc(=O)oc4c3)c2C)no1
*A* 0.0

*Q* Hey, what did the test say about O=CNc1cc(-c2ccc(C(=O)NC3CC3)cc2)cn2c(-c3ccccc3)cnc12 ?
*A* 1.0

*Q* Record request — test call for CN(CC(=O)Nc1ccccc1Br)C(=O)CCc1nc2ccccc2c(=O)[nH]1
*A* 0.0

*Q* Recorded test outcome, item N#CC1=C(N)Oc2c(O)cc3ccccc3c2C1c1ccsc1 (stereo not drawn)
*A* 0.0

More entries:
*Q* Record lookup: outcome of this test for CN(C)S(=O)(=O)c1ccc(NC(=O)COC(=O)Cn2[nH]c(=O)c3ccccc3c2=O)cc1 ?
*A* 1.0

*Q* Tell me the assay call for CC1(C(=O)Nc2cccc(OC(F)(F)F)c2)Cc2c(-c3ccc(C(N)=O)cc3)ccnc2O1 (stereo not drawn) please.
*A* 0.0

*Q* Each compound tested received a call. Report the one for Nc1nc(-c2c[nH]c3ccccc23)cs1 .
*A* 0.0

*Q* Returns: the outcome recorded for COc1cc(C(=O)NCCCNc2nc3cc(C)cc(C)c3cc2C#N)cc(OC)c1OC in this assay.
*A* 0.0

*Q* Can you look up the reported call for O=C(CSc1nnc(-c2cccnc2)o1)c1cc2ccccc2oc1=O for me?
*A* 0.0

*Q* # lookup: test call for CN1C(=O)CSc2ccc(NC(=O)Nc3ccccn3)cc21
*A* 0.0

###

Tested on: H9c2 cardiomyocytes, 2-deoxyglucose stress, ATP luminescence, 2 h
procedure details: H9c2 cell survival under 2-deoxyglucose stress – uHTS hits, dose response (AID 588780)
The source made the active and inactive calls.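 How the source made its calls: active means compounds whose fitted half-maximal concentration in the cell-protection dose series is at or below a set limit; inactive means the rest.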
Bench note: report the call from active, inactive

Sample answers from the record:
*Q* What call does the record list for CC(=O)OCc1nc2sc(C)c(C)c2c(=O)[nH]1 ?
*A* inactive

*Q* # lookup: test call for COc1ccc(OC)c(/C=N/Nc2nncn2/N=C/c2cc(OC)ccc2OC)c1
*A* inactive

*Q* Dear all, I need the recorded test outcome for Cc1cc(C)c2ccc(NN)nc2c1O , thank you.
*A* inactive

New cases:
*Q* Hi team, can someone confirm the assay call for Oc1c(Br)cc(Br)cc1C=NCc1ccccc1 ?
*A* inactive

*Q* Look up the recorded call for O=C(O)c1nn(CCOc2ccccc2F)c(=O)c2ccccc12 in this test.
*A* active

*Q* Identify the outcome logged in this assay for the molecule shown: CC(=O)Nc1cc(-c2cccc(C(=O)N(C)C)c2)cn2c(-c3ccc(C(C)=O)cc3)cnc12
*A* active

*Q* Please indicate how the test categorized CCCN(CC(=O)Nc1ccccc1C)C(=O)Cc1n[nH]c(=O)c2ccccc12 .
*A* inactive

###

System: H9c2 cardiomyocytes, 2-deoxyglucose stress, ATP luminescence, 2 h
procedure details: H9c2 cell survival under 2-deoxyglucose stress – uHTS hits, dose response (AID 588780)
Calls of active or inactive are those of the source.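 The calls were made as follows: active = compounds whose fitted half-maximal concentration in the cell-protection dose series is at or below a set limit; inactive = the rest.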
I would appreciate it if you answered using one of these outcomes: active, inactive

*Q* Lab log entry: CCOCCCNC(=O)CCC(=O)NNc1nc2ccccc2c2nc(-c3ccccc3)nn12 — outcome as called in the assay?
*A* inactive

*Q* Hey, what did the test say about NC(=O)c1nsc(C(=O)N(Cc2ccco2)C(C(=O)NCc2ccccc2)c2ccc(O)cc2)c1N (configuration not stated) ?
*A* active

*Q* Hey, what did the test say about CCN(CC(=O)Nc1c(F)cccc1F)C(=O)Cn1[nH]c(=O)c2ccccc2c1=O ?
*A* inactive

*Q* Entry CCCn1c(=O)c(C(=O)Nc2ccccc2)c(O)c2ccccc21 : call = ?
*A* inactive

*Q* Called result for COc1cccc(-c2cnc3c(NC=O)cc(-c4cc(C)c(O)c(C)c4)cn23)c1
*A* active

*Q* Could you check what this test reported for O=c1cc(-c2cccnc2)oc2c1ccc1ccccc12 ?
*A* active

*Q* Which result was noted for this compound in the test: O=c1[nH]nc(Cc2ccc([N+](=O)[O-])cc2)c2ccccc12
*A* active

*Q* Status in this test for CCN1C(=O)[C@H]2[C@H]3CN=C(SCc4ccc(C#N)cc4)N3[C@@](Cc3ccccc3)(C(=O)OC)[C@H]2C1=O ?
*A* inactive

*Q* Record lookup: outcome of this test for O=C(CCn1nc(-c2ccccc2)c2ccccc2c1=O)N1CCN(c2ccccc2)CC1 ?
*A* inactive

*Q* Assay result, entry O=C(Cn1[nH]c(=O)c2ccccc2c1=O)NC1CCN(Cc2ccccc2)CC1 — outcome?
*A* inactive

*Q* Status in this test for CCCc1nc2ccccc2c(C(=O)OCc2nnc(-c3cc(OC)c(OC)c(OC)c3)o2)c1CC ?
*A* active

*Q* I would be grateful if you could indicate the recorded call for O=c1[nH]c(N2CCN(c3ccccc3)CC2)nc2c1CCC2 .
*A* inactive

*Q* Each compound tested received a call. Report the one for COc1ccccc1C(=O)COC(=O)Cn1[nH]c(=O)c2ccccc2c1=O .
*A* inactive

*Q* Outcome logged for CCOC(=O)C1CCN(c2cc3c(cc2NC(=O)c2ccc(OC)c(OC)c2)n(C)c(=O)n3C)CC1 in this assay:
*A* inactive

*Q* Status in this test for C=CCC[C@H](Cc1ccc(F)cc1)C(=O)OC[C@@H](Cc1c[nH]c2ccccc12)NC(=O)[C@@H](CC=C)CC(=O)NCCO ?
*A* inactive

*Q* For this compound, state the assay outcome: O=C(Nc1cccc(/C=C/c2ccccn2)c1)c1ccc(-n2cncn2)cc1
*A* inactive
